# test_system: T1, Rb^P S588F (human, UniProt P06400 380-788, S588F)
# T1 construct: also called variant 34
# T1 sequence (looked up): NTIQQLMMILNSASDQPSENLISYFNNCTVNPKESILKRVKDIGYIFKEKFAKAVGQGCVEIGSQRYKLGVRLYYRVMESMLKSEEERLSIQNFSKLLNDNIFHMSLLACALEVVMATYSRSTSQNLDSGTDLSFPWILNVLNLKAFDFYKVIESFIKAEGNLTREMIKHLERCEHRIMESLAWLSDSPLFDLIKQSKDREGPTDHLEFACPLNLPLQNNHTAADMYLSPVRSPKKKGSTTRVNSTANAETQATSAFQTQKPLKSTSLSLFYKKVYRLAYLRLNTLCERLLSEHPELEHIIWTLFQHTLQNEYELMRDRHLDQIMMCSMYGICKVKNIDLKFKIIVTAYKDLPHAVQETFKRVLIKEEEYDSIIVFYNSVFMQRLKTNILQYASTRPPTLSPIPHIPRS
# assay_summary: fluorescence polarisation; 37 °C, after the 25 °C reading ramped over 7 min to 37 °C and 2 min incubation; unlabeled Rb^P against 1.5 nM TMR-E2F1^TD or 7.5 nM TMR-E7^LxCxE; 25 mM Tris pH 8.0, 200 mM NaCl, 1 mM DTT, 0.1% Tween-20; apparent Kd
# measurement_parameters: both partners purified
pKd: −log10 of the molar value. No end group written: not given here. TMR = tetramethyl rhodamine dye
value_kind: pKd

{"binder": "{TMR}-GEGIRDLFDCDFGDLTPLD (also called E2F^TD; source: synthetic peptide, bought: GenScript) [TMR-E2F1^TD, peptide of the E2F1 transactivation domain]", "measured_result": 7.29}
{"binder": "DLYCYEQLN (also: TMR label, position not given here, source: synthetic peptide, bought: GenScript) [TMR-E7^LxCxE, LxCxE peptide of the E7 oncoprotein from HPV]", "measured_result": 7.80}
